Recorded inhibition by entry
biological target: Carboxy-terminal domain RNA polymerase II polypeptide A small phosphatase 1 (Homo sapiens); test: Scp-1 phosphatase inhibitors, primary screen, biochemical, colorimetric, uHTS (AID 493091); conditions: Recombinant Scp1, phosphopeptide, malachite green phosphate absorbance; at 20 µM; active compounds read high;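 note: plate controls were DMSO wells with enzyme for no effect and wells lacking enzyme for full effect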
The whole screen tested about 340,000 compounds, of which about 3,000 (0.88%) were called active. The list comes from a sample in which actives are over-represented; it also holds close analogues and randomly drawn compounds.
Return type: number; implicit unit %.

Below: 3 compounds and their reported inhibition.
CC1CCCCC1NC(=O)C1CCCN1S(=O)(=O)c1cccc2nsnc12 (centres undefined) | -9.08
O=C(O)c1ccccc1-c1ccccc1C(=O)NCc1cccnc1 | -6.94
CC1CC(C)CN(S(=O)(=O)c2cccc3nonc23)C1 (centres undefined) | -1.81

Qu. Provide Carboxy-terminal domain RNA polymerase II polypeptide A small phosphatase 1 (Homo sapiens) inhibition reading for Cc1ccc(CNC(=O)C2CCCN2C(=O)NCc2ccccc2)cc1 (centres undefined) .
Ans. -7.83

Qu. Provide Carboxy-terminal domain RNA polymerase II polypeptide A small phosphatase 1 (Homo sapiens) inhibition reading for CCOC(=O)Cc1cc(=O)[nH]c(/N=C(\N)Nc2ccc(OC)cc2)n1 .
Ans. -0.71

Qu. Provide Carboxy-terminal domain RNA polymerase II polypeptide A small phosphatase 1 (Homo sapiens) inhibition reading for CCOc1cc(/C=C2\C(=N)N3N=C(C)SC3=NC2=O)ccc1OCCOc1ccccc1 .
Ans. -5.68

Qu. Provide Carboxy-terminal domain RNA polymerase II polypeptide A small phosphatase 1 (Homo sapiens) inhibition reading for CC1=CC(C)(C)N(C(=O)CSc2nnc(-c3ccccc3)o2)c2ccc(C)cc21 .
Ans. -2.74

---

target: Carboxy-terminal domain RNA polymerase II polypeptide A small phosphatase 1 (Homo sapiens) (UniProt Q9GZU7); assay: Scp-1 phosphatase inhibitors, primary screen, biochemical, colorimetric, uHTS (AID 493091); conditions: Recombinant Scp1, phosphopeptide, malachite green phosphate absorbance; at 20 µM; active compounds read high;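 note: plate controls were DMSO wells with enzyme for no effect and wells lacking enzyme for full effect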
Sequence (Q9GZU7 76-261 limits assumed): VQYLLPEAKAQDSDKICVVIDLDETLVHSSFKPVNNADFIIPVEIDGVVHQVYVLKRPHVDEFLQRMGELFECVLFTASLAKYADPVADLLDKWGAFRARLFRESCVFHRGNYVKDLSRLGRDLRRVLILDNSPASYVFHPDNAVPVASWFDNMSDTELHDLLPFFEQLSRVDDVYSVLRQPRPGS
Hit rate of the full screen: of about 340,000 compounds, about 3,000 (0.88%) were called active. Only a selection was taken, and actives are over-represented in it overall.
REPORTED_METRIC: inhibition (%)
Return type: number; implicit unit %.

Below: 5 compounds and their reported inhibition.
CCOC(=O)CCCCCC(=O)Nc1ccc2c(c1)CC(=O)N([C@@H](C)CO)C[C@H](C)[C@@H](CN(C)Cc1ccccc1)O2 | -4.43
CCOc1ccccc1Nc1nnc(SCC(=O)NCC2CCCO2)s1 (centres undefined) | -9.59
CCC(=O)Nc1ccccc1N1CCN(S(C)(=O)=O)CC1 | 53.6
COc1ccc(OC)c(NC(=O)CSc2nc(-c3ccccc3)cc(=O)[nH]2)c1 | 81.5
CCOc1ccc(NC(=O)c2ccc(NC(=O)COC(=O)c3ccc(NC(=O)CC#N)cc3)cc2)cc1 | 85.9

Alright, here's another compound for you.
Qu. Determine from records and report inhibition for COC(=O)CSc1ccc2nnc(CCNS(=O)(=O)c3ccc(C)cc3)n2n1
Ans. -10.5

---

biological target: Carboxy-terminal domain RNA polymerase II polypeptide A small phosphatase 1 (Homo sapiens); assay: Scp-1 phosphatase inhibitors, primary screen, biochemical, colorimetric, uHTS (AID 493091); details: Recombinant Scp1, phosphopeptide, malachite green phosphate absorbance; at 20 µM;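 note: plate controls were DMSO wells with enzyme for no effect and wells lacking enzyme for full effect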
Among all 340,000 compounds or so, about 3,000 (0.88%) were called active.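 How the source made its calls: active means inhibition above about 50% at 20 µM (limit read from the data); inactive means the rest.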 This is one part of a sample in which actives are shown more often than they occur.
Write down one outcome, taken from TRUE for active, FALSE for inactive

Record excerpt, results attached:
O=C(COC(=O)c1ccc(F)cc1F)Nc1ncccn1 | TRUE
Cc1c(CCO)c(=O)n(-c2ccccc2)n1S(=O)(=O)c1ccc(F)cc1 | FALSE
Cc1ccc(C2(C)NC(=O)N(CC(=O)Nc3ccccc3C(=O)N3CCCCC3)C2=O)cc1 (configuration not stated) | TRUE
CC(=O)N1CCN(S(=O)(=O)c2cccc(C(=O)NC3CCC(C)CC3)c2)CC1 (configuration not stated) | FALSE
O=C(NNS(=O)(=O)c1ccc([N+](=O)[O-])cc1)C1CCCCC1 | FALSE

Qu. Field: outcome | Entry: O=C(Nc1cccnc1)c1cc([N+](=O)[O-])ccc1Cl
Ans. FALSE

Qu. Field: outcome | Entry: COc1ccc2oc(=O)cc(-c3cc4ccccc4o3)c2c1
Ans. FALSE

Qu. Field: outcome | Entry: C=CCn1c(=S)[nH]c2scc(-c3ccco3)c2c1=O
Ans. TRUE

Qu. Field: outcome | Entry: O=C(N/N=C/c1ccc(Br)o1)c1cncc(Br)c1
Ans. FALSE

Qu. Field: outcome | Entry: Nc1ccc(C(=O)NCc2ccccc2)cc1
Ans. FALSE

Qu. Field: outcome | Entry: COC(=O)c1cc(S(=O)(=O)Nc2ccc(C)c(F)c2)c[nH]1
Ans. FALSE

Qu. Field: outcome | Entry: Cc1ccc(NC(=O)CN(C)C(=O)c2ccc(Br)o2)cc1
Ans. FALSE

Qu. Field: outcome | Entry: CCn1cc(C(=O)NCC(=O)NC(C)(C)CO)c(=O)c2cc3c(cc21)OCO3
Ans. FALSE

Qu. Field: outcome | Entry: O=C(NN=Cc1ccccc1)c1ccccc1
Ans. FALSE

Qu. Field: outcome | Entry: COc1ccc(OCC(=O)NNC(=O)c2ccc(-c3ccccc3)cc2)cc1
Ans. TRUE

Qu. Field: outcome | Entry: O=C1N/C(=C/c2cccn2-c2ccccc2)C(=O)N1c1cccc(Cl)c1
Ans. FALSE

Qu. Field: outcome | Entry: O=C(CNC(=O)c1ccc(Br)o1)Nc1ccccc1
Ans. FALSE

Qu. Field: outcome | Entry: COc1cccc2cc(-c3cc(=O)oc4cc(C)c(O)cc34)oc12
Ans. TRUE

Qu. Field: outcome | Entry: COc1ccc2oc(=N)c(C(=O)Nc3ccc(Br)cc3)cc2c1
Ans. FALSE

Qu. Field: outcome | Entry: O=C(CNCc1cccs1)Nc1cc(S(=O)(=O)N2CCCC2)ccc1Cl
Ans. FALSE

Qu. Field: outcome | Entry: O=C(c1ccccc1F)N1CCN(S(=O)(=O)c2ccc(Br)cc2)CC1
Ans. FALSE

Qu. Field: outcome | Entry: C[n+]1ccc(C(=O)NCc2ccccc2)cc1
Ans. TRUE

Qu. Field: outcome | Entry: O=C(NNC(=O)c1ccc2ccccc2c1)c1ccc(Cl)cc1
Ans. TRUE

Qu. Field: outcome | Entry: CCN(CC)c1ccc(C(=O)NNC(=O)CCc2nc3ccccc3c(=O)[nH]2)cc1
Ans. FALSE
